experiment-description: DRUGMATRIX: Glutamate, NMDA, Agonism radioligand binding (ligand: [3H] CGP-39653)
Format: cell membranes, Rattus norvegicus, Wistar, Cerebral cortex, Membrane
test-settings: Not Active = under 50% inhibition at 10 µM
assay-metric: Ki

molecule="CCCCOc1cc(CC2CNC(=O)N2)ccc1OC (stereo not drawn)" assay_metric=Ki data_value="Not Active"
molecule="COC(=O)Nc1nc2ccc([S+]([O-])c3ccccc3)cc2[nH]1 (stereo not drawn)" assay_metric=Ki data_value="Not Active"
molecule=Nc1ccc2c3c(cccc13)C(=O)NC2=O assay_metric=Ki data_value="Not Active"
molecule="C[C@@H]1CC[C@@]2(OC1)O[C@H]1[C@@H](O)[C@H]3[C@@H]4CC[C@H]5C[C@@H](O[C@@H]6O[C@H](CO)[C@H](O[C@@H]7O[C@H](CO)C(O)[C@H](O[C@@H]8OC[C@@H](O)[C@H](O)[C@H]8O)[C@H]7O[C@@H]7O[C@H](CO)[C@H](O)[C@H](O[C@@H]8O[C@H](CO)[C@@H](O)[C@H](O)[C@H]8O)[C@H]7O)[C@H](O)[C@H]6O)[C@H](O)C[C@]5(C)[C@H]4CC[C@]3(C)[C@H]1[C@@H]2C (stereo partly drawn)" assay_metric=Ki data_value="Not Active"
molecule="C#C[C@]1(OC(C)=O)CC[C@H]2[C@@H]3CCC4=C[C@@H](OC(C)=O)CC[C@@H]4[C@H]3CC[C@@]21C [ETHYNODIOL DIACETATE]" assay_metric=Ki data_value="Not Active"
molecule=CO[C@@H]1[C@@H](OC)[C@H](C)[C@@](O)(CC(=O)O)O[C@H]1[C@H](C)[C@H]1O[C@@]2(CC[C@@](C)([C@H]3CC[C@@](C)([C@@H]4O[C@@H]([C@H]5O[C@](C)(O)[C@H](C)C[C@@H]5C)C[C@@H]4O[C@@H]4C[C@H](OC)[C@@H](OC)[C@H](C)O4)O3)O2)C[C@H](O)[C@H]1C assay_metric=Ki data_value="Not Active"
molecule="CCCNCC(O)COc1ccccc1C(=O)CCc1ccccc1 (stereo not drawn)" assay_metric=Ki data_value="Not Active"
molecule="NC1CCN(c2nc3c(cc2F)c(=O)c(C(=O)O)cn3-c2ccc(F)cc2F)C1 (stereo not drawn)" assay_metric=Ki data_value="Not Active"
molecule=Clc1ccccc1CN1CCc2sccc2C1 assay_metric=Ki data_value="Not Active"
molecule="CCC1(C)CC(=O)NC1=O (stereo not drawn) [ETHOSUXIMIDE]" assay_metric=Ki data_value="Not Active"
molecule="CC(C(=O)O)c1ccc2oc(-c3ccc(Cl)cc3)nc2c1 (stereo not drawn)" assay_metric=Ki data_value="Not Active"
molecule=O=C(O)c1cccnc1Nc1cccc(C(F)(F)F)c1 assay_metric=Ki data_value="Not Active"
molecule=C[C@]12C=CC(=O)C=C1CC[C@@H]1[C@@H]2[C@@H](O)C[C@@]2(C)[C@H]1CC[C@]2(O)C(=O)CO assay_metric=Ki data_value="Not Active"

====

target-system: Voltage-gated inwardly rectifying potassium channel KCNH2 (Homo sapiens); note: in other assays of this panel Not Active means under 50% inhibition at 10 µM
Sequence (Q12809 whole entry): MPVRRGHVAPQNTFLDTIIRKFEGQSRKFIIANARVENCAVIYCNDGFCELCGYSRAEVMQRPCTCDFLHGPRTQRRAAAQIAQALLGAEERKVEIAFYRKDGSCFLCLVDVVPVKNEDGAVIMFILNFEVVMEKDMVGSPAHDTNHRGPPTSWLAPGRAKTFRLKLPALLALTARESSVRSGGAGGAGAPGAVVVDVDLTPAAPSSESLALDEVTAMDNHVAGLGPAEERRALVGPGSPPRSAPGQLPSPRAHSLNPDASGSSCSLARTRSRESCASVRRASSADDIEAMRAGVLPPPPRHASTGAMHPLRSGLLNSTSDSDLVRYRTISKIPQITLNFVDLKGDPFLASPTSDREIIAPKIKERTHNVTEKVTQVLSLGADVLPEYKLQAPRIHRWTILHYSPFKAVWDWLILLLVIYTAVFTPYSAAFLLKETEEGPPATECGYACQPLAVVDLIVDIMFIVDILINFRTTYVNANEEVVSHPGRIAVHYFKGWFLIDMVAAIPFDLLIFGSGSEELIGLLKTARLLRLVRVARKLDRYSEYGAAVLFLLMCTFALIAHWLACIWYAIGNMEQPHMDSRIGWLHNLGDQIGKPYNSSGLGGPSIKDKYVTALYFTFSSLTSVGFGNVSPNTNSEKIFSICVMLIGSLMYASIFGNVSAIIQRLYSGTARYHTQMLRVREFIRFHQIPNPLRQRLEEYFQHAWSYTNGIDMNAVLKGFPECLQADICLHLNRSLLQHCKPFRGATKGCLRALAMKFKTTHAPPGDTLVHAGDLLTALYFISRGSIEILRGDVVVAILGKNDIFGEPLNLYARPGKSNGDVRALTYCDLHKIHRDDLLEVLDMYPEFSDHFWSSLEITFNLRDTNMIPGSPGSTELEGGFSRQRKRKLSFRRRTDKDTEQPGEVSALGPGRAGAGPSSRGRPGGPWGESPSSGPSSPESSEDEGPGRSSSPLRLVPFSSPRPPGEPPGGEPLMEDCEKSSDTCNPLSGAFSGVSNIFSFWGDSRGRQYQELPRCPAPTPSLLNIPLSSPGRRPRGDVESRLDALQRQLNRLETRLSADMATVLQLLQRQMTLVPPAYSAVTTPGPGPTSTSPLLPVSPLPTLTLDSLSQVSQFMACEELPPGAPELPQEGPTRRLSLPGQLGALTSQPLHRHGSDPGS
test-settings: hek293
assay-metric: Ki

molecule="COc1cc([C@@H]2c3cc4c(cc3[C@@H](O[C@@H]3O[C@@H]5CO[C@@H](C)O[C@H]5[C@H](O)[C@H]3O)[C@H]3COC(=O)[C@H]23)OCO4)cc(OC)c1O [ETOPOSIDE]" target_system="Voltage-gated inwardly rectifying potassium channel KCNH2 (Homo sapiens)" data_value="Not Active"
molecule="CC(C(=O)O)c1ccc2oc(-c3ccc(Cl)cc3)nc2c1 (stereo not drawn) [BENOXAPROFEN]" target_system="Voltage-gated inwardly rectifying potassium channel KCNH2 (Homo sapiens)" data_value="Not Active"
molecule="O=C(N/N=C/c1ccc([N+](=O)[O-])o1)c1cc([N+](=O)[O-])cc([N+](=O)[O-])c1O [NIFURSOL]" target_system="Voltage-gated inwardly rectifying potassium channel KCNH2 (Homo sapiens)" data_value="Not Active"
molecule="COc1ccc2[nH]cc(CCNC(C)=O)c2c1 [MELATONIN]" target_system="Voltage-gated inwardly rectifying potassium channel KCNH2 (Homo sapiens)" data_value="Not Active"
molecule="CCN(CC)CCNC(=O)c1cc(S(C)(=O)=O)ccc1OC [TIAPRIDE]" target_system="Voltage-gated inwardly rectifying potassium channel KCNH2 (Homo sapiens)" data_value="Not Active"
molecule="O=C(Oc1ccccc1C(=O)O)c1ccccc1O [SALSALATE]" target_system="Voltage-gated inwardly rectifying potassium channel KCNH2 (Homo sapiens)" data_value="Not Active"
molecule="CC(C)(C)NC(=O)[C@H]1CC[C@H]2[C@@H]3CC[C@H]4NC(=O)C=C[C@]4(C)[C@H]3CC[C@]12C [FINASTERIDE]" target_system="Voltage-gated inwardly rectifying potassium channel KCNH2 (Homo sapiens)" data_value="Not Active"
molecule="C[C@@H]1C[C@H]2[C@@H]3CCC4=CC(=O)C=C[C@]4(C)[C@@]3(F)[C@@H](O)C[C@]2(C)[C@H]1C(=O)CO [DESOXIMETASONE]" target_system="Voltage-gated inwardly rectifying potassium channel KCNH2 (Homo sapiens)" data_value="Not Active"
molecule="CC(=O)[C@@]1(O)CC[C@H]2[C@@H]3CCC4=CC(=O)CC[C@]4(C)[C@H]3CC[C@@]21C [HYDROXYPROGESTERONE]" target_system="Voltage-gated inwardly rectifying potassium channel KCNH2 (Homo sapiens)" data_value="Not Active"
molecule="CCC1(CCC(C)C)C(=O)NC(=O)NC1=O [AMOBARBITAL]" target_system="Voltage-gated inwardly rectifying potassium channel KCNH2 (Homo sapiens)" data_value="Not Active"
molecule="Cn1c(=O)c2[nH]cnc2n(C)c1=O.Cn1c(=O)c2[nH]cnc2n(C)c1=O.NCCN [AMINOPHYLLINE]" target_system="Voltage-gated inwardly rectifying potassium channel KCNH2 (Homo sapiens)" data_value="Not Active"
molecule="N#Cc1ccc(C(c2ccc(C#N)cc2)n2cncn2)cc1 [LETROZOLE]" target_system="Voltage-gated inwardly rectifying potassium channel KCNH2 (Homo sapiens)" data_value="Not Active"
molecule="Cc1c(C)c2c(c(C)c1O)CCC(C)(CN1CCN(c3cc(N4CCCC4)nc(N4CCCC4)n3)CC1)O2 (stereo not drawn)" target_system="Voltage-gated inwardly rectifying potassium channel KCNH2 (Homo sapiens)" data_value="Not Active"
molecule="Oc1c(Cl)cc(Cl)c(Cl)c1Cc1c(O)c(Cl)cc(Cl)c1Cl [HEXACHLOROPHENE]" target_system="Voltage-gated inwardly rectifying potassium channel KCNH2 (Homo sapiens)" data_value="Not Active"
molecule="Cc1cc2c(OCC(CNC(C)(C)C)OC(=O)c3ccccc3)cccc2[nH]1 (stereo not drawn) [BOPINDOLOL]" target_system="Voltage-gated inwardly rectifying potassium channel KCNH2 (Homo sapiens)" data_value="Not Active"
molecule="CN(C)[C@@H]1C(O)=C(C(N)=O)C(=O)[C@@]2(O)C(O)=C3C(=O)c4c(O)ccc(Cl)c4[C@@](C)(O)[C@H]3C[C@@H]12 [CHLORTETRACYCLINE]" target_system="Voltage-gated inwardly rectifying potassium channel KCNH2 (Homo sapiens)" data_value="Not Active"
molecule="OC(CCCN1CCCCC1)(c1ccccc1)c1ccccc1 [DIPHENIDOL]" target_system="Voltage-gated inwardly rectifying potassium channel KCNH2 (Homo sapiens)" data_value="Not Active"
molecule="C[C@H]1O[C@@H](n2cc(F)c(=O)[nH]c2=O)[C@H](O)[C@@H]1O [DOXIFLURIDINE]" target_system="Voltage-gated inwardly rectifying potassium channel KCNH2 (Homo sapiens)" data_value="Not Active"
molecule="CN/C(=N\\CCSCc1nc[nH]c1C)NC#N [CIMETIDINE]" target_system="Voltage-gated inwardly rectifying potassium channel KCNH2 (Homo sapiens)" data_value="Not Active"
molecule="O=C1C(CC[S+]([O-])c2ccccc2)C(=O)N(c2ccccc2)N1c1ccccc1 (stereo not drawn) [SULFINPYRAZONE]" target_system="Voltage-gated inwardly rectifying potassium channel KCNH2 (Homo sapiens)" data_value="Not Active"
molecule="NC(=O)C[S+]([O-])C(c1ccccc1)c1ccccc1 (stereo not drawn) [MODAFINIL]" target_system="Voltage-gated inwardly rectifying potassium channel KCNH2 (Homo sapiens)" data_value="Not Active"
molecule="Nc1ccn([C@@H]2O[C@H](CO)[C@@H](O)[C@@H]2O)c(=O)n1 [CYTARABINE]" target_system="Voltage-gated inwardly rectifying potassium channel KCNH2 (Homo sapiens)" data_value="Not Active"
molecule="Cn1c(=O)c2nc[nH]c2n(C)c1=O.O [THEOPHYLLINE]" target_system="Voltage-gated inwardly rectifying potassium channel KCNH2 (Homo sapiens)" data_value="Not Active"
molecule="COC(=O)Nc1nc2ccc(C(=O)c3cccs3)cc2[nH]1 [NOCODAZOLE]" target_system="Voltage-gated inwardly rectifying potassium channel KCNH2 (Homo sapiens)" data_value="Not Active"
molecule="O=C(Nc1ccc(Br)cc1)c1cc(Br)cc(Br)c1O [TRIBROMSALAN]" target_system="Voltage-gated inwardly rectifying potassium channel KCNH2 (Homo sapiens)" data_value="Not Active"
molecule="CC(C)Cc1ccc([C@@H](C)C(=O)O)cc1 [(R)-IBUPROPHEN]" target_system="Voltage-gated inwardly rectifying potassium channel KCNH2 (Homo sapiens)" data_value="Not Active"
molecule="CC(C)Oc1ccc2c(=O)c(-c3ccccc3)coc2c1 [IPRIFLAVONE]" target_system="Voltage-gated inwardly rectifying potassium channel KCNH2 (Homo sapiens)" data_value="Not Active"
molecule="O=C1Nc2ccc(Cl)cc2C(c2ccccc2Cl)=NC1O (stereo not drawn) [LORAZEPAM]" target_system="Voltage-gated inwardly rectifying potassium channel KCNH2 (Homo sapiens)" data_value="Not Active"
molecule="CC(C)NCC(O)c1ccc(NS(C)(=O)=O)cc1 (stereo not drawn) [SOTALOL]" target_system="Voltage-gated inwardly rectifying potassium channel KCNH2 (Homo sapiens)" data_value="Not Active"
molecule="CC(C)NNC(=O)c1ccncc1 [IPRONIAZID]" target_system="Voltage-gated inwardly rectifying potassium channel KCNH2 (Homo sapiens)" data_value="Not Active"
molecule="O=c1cnn([C@@H]2O[C@H](CO)[C@@H](O)[C@H]2O)c(=O)[nH]1 [6-AZAURIDINE]" target_system="Voltage-gated inwardly rectifying potassium channel KCNH2 (Homo sapiens)" data_value="Not Active"
molecule="CO[C@H]1/C=C/O[C@@]2(C)Oc3c(C)c(O)c4c(O)c(c(/C=N/N5CCN(C6CCCC6)CC5)c(O)c4c3C2=O)NC(=O)/C(C)=C\\C=C\\[C@H](C)[C@H](O)[C@@H](C)[C@@H](O)[C@@H](C)[C@H](OC(C)=O)[C@@H]1C [RIFAPENTINE]" target_system="Voltage-gated inwardly rectifying potassium channel KCNH2 (Homo sapiens)" data_value="Not Active"
molecule="Nc1cc(N2CCCCC2)nc(N)[n+]1[O-] [MINOXIDIL]" target_system="Voltage-gated inwardly rectifying potassium channel KCNH2 (Homo sapiens)" data_value="Not Active"
